Assay: Apparent permeability from basolateral to apical side of the human Caco2 cells at 100 uM after 30 mins by HPLC method
Type: ADME, cell-based
Conditions: Caco-2
quantity name: Papp B→A at 0.5 h, 100 µM (×10⁻⁶ cm/s)
Report the figure in ×10⁻⁶ cm/s without appending any unit label.

Cc1cn([C@H]2C[C@H](N=[N+]=[N-])[C@@H](COP(=O)(CCl)NC(C)C)O2)c(=O)[nH]c1=O (some centres not stated) = 18

Can you share its Papp B→A at 0.5 h, 100 µM? I mean this compound: CCCNP(=O)(CCl)OC[C@H]1O[C@@H](n2cc(C)c(=O)[nH]c2=O)C[C@@H]1N=[N+]=[N-] (some centres not stated)
16.1
